system: Plasmodium berghei; experiment: Screen against P. berghei liver stage (PbLuc), transformed with Luciferase, at 10uM; assay type: functional, HepG2; conditions: tested at 10 uM
About 8,600 (12%) of roughly 69,000 compounds showed an effect of 50% or more. Shown is part of a subset that was picked to be rich in strong results.
Attribute: INHIBITION

CHEMICAL_STRUCTURE	ENDPOINT_UNIT	INHIBITION
COc1ccc(NC(=O)N(C)Cc2ccco2)cn1	%	0.705
CN(C)CCNC(=O)Cn1cnc2cc(NC(=O)C3CC3)ccc21	%	4.48
Cn1cc(-c2ncc(C(=O)NCCCn3ccccc3=O)s2)cn1	%	44.9
CCOCCC1(CNC(=O)c2ccncc2Cl)CCC1	%	20.4

====

tested on: Plasmodium berghei; assay: Screen against P. berghei liver stage (PbLuc), transformed with Luciferase, at 10uM; format: functional, HepG2; settings: tested at 10 uM
Among all 69,000 compounds or so, about 8,600 (12%) showed an effect of 50% or more. This excerpt belongs to a sample that is enriched for strong results.
Attribute: INHIBITION
OUTCOME_MEASURE: INHIBITION (%)

COMPOUND	ENDPOINT_UNIT	RECORDED_NUMBER
O=C(Nc1cccc(Cl)c1)c1nn(C2CCS(=O)(=O)C2)c2c1CCCC2 (stereo not given)	%	79.8
Cn1ncc2c(=O)[nH]c(CN3CCCC3Cc3ccccc3)nc21 (stereo not given)	%	24
CS(=O)(=O)N1CCC(NC(=O)COc2cccc(Cl)c2)CC1	%	-35.7
Nc1ncccc1C(=O)NCc1cccc(Br)c1	%	68.9
Cn1ncc2c(=O)[nH]c(CN3CCc4ccccc4C3)nc21	%	40
Cc1nn(C2CCS(=O)(=O)C2)c(O)c1Cc1cccc(Cl)c1 (stereo not given)	%	28.5
CN(C)c1cc(CNC(=O)c2cc(F)ccc2F)ccn1	%	-2.53
CN(C)c1cc(CNC(=O)c2cn(-c3ccc(F)cc3)nn2)ccn1	%	70.6
Cn1ncc2c(=O)[nH]c(CN3CCC(Cc4ccccc4)CC3)nc21	%	52.7
Nc1ncccc1C(=O)NCc1cccc(Cl)c1	%	69.8
Cn1ncc2c(=O)[nH]c(CN(Cc3ccco3)C3CCCC3)nc21	%	54.3
CC(c1ccco1)N(C)Cc1nc2c(cnn2C)c(=O)[nH]1 (stereo not given)	%	66.8
Cc1ccccc1C(C)N(C)Cc1nc2c(cnn2C)c(=O)[nH]1 (stereo not given)	%	26.45
CC(Cn1cccn1)NC(=O)c1cc(C2CC2)nc2c1cnn2C (stereo not given)	%	-6.18
Cn1c(Cn2cccn2)nnc1C1CCN(Cc2ccccc2Cl)CC1	%	-10.9

====

tested on: Plasmodium berghei; assay: Screen against P. berghei liver stage (PbLuc), transformed with Luciferase, at 10uM; format: functional, HepG2; settings: tested at 10 uM
Screen size: about 69,000 compounds; about 8,600 (12%) showed an effect of 50% or more. The sample as a whole holds a higher share of strong results than the screen did.

MOLECULE	ENDPOINT_UNIT	INHIBITION
Cn1cccc1C(=O)COc1ccc(S(N)(=O)=O)cc1	%	-55.3
CS(=O)(=O)N1CCN(Cc2cccs2)CC(C(N)=O)C1 (centres undefined)	%	8.72
Cc1nn(C)c(C)c1C(C)NC(=O)Nc1cccnc1N1CCCC1 (centres undefined)	%	11.6
CC(NC(=O)Nc1cccnc1N1CCCC1)c1ccn(C)c1 (centres undefined)	%	62.6
